tgt: RSV F protein of subtype A strain A2, on virus (respiratory syncytial virus subtype A …, UniProt P03420 26-574)
procedure_details: cell-based or functional assay
Use 0.06 µg/mL as the dividing line for Neut IC50 (ug/ml) subtype A, with the line itself on the Yes side and lower values as No.

Examples from the recorded data:
[
  {
    "binder": "ADI-15665 (antibody, V domains shown) VH: QVQLVQSGPEVKRPGSSVKVSCKASGDTFNNYAISWVRQAPGQGLEWMGGIHPTTATPNYAQKFQGRVVISADKSTSTAYLDLSRLRSEDTAMYYCARVGVGRTWVYDIMGYLDYWGQGTLVTVSS VL: EIVLTQSPATLSLSPGERATLSCRASQSVSDYLAWYQQRPGQAPRLLIYDASTRATGIPDRFSGGGSGTDFTLTISSLEPEDFAVYYCQHRNNWPSLTFGGGTKVEIK",
    "discrete_label": "Yes"
  },
  {
    "binder": "ADI-15624 (antibody, V domains shown, IgG; also called Antibody Number 189) VH: QVQLVQSGGGLVKAGGSLRLSCAASGFTISGFYMTWIRQAPGKGLEWVSSISGSSSYTNYADSVKGRFTISRDNAKNSLYLHMNSLRAEDTAVYYCARIRPDDSSGYPDYWGQGTLVTVSS VL: QSVLTQPPSVSGAPGQRVTISCTGSSSNIGAGYDVHWCQQLPGTAPKLLIYGNNNRPSGVPDRFSGSKSGTSASLAITGLQAEDEADYYCQSYDSSLSGFVFGTGTKVTVL",
    "discrete_label": "No"
  },
  {
    "binder": "ADI-15621 (antibody, V domains shown, IgG; also called Antibody Number 186) VH: QVQLVQSGPEMKKPGSSVKVSCKPSGGTFSSYSVSWVRQAPGQGLEWMGGIIPIFGSSDYAQKFQGRLTITEDESTKTSYMQLNNLTSDDTAIYFCARDNYYVWTGHYPEFDFWGQGTLVTVSS VL: ETTLTQSPGTLSLSLGETATLSCRASQSVRSDYLAWYQQKPGQAPRLLISGASNRATAIPERFTGSGSGTDFTLTISSLEPADFAVYYCQQYGSTPITFGQGTRLEIK",
    "discrete_label": "No"
  },
  {
    "binder": "ADI-15577 (antibody, V domains shown, IgG) VH: QVQLVQSGAEVKKPGSSVKVSCKASGGTFGSYAISWVRQAPGQGLEWMGGTIPIFGTADHAQKFQGRVTITADKSTSTAYMELSSLRSEDTAVYYCARGVFRVGCSDTSCLKNYYGTDVWGQGTTVTVSS VL: QSVLIQPASVSGSPGQSITVSCTGSSGDVGAYKYVSWYQQHPGRGPKLIIYDVSARPSGISDRFSGSKSGNTASLTISGLQAEDEADYYCSSYSSSSTLVVFGGGTKVTVL",
    "discrete_label": "Yes"
  },
  {
    "binder": "ADI-15594 (antibody, V domains shown, IgG) VH: EVQLVESGGHLVQPGGSLRLSCAASGFTFSSYSMNWVRQAPGKGLEWISYISSSSSTMYYADSVKGRFTMSRDNAKNSLYLQMNSLRDEDTALYYCARDFPPINLAATTRNYYYYVMDVWGQGTTVTVSS VL: DIQLTQSPSSLSASVGDRVTITCRASQSISSYLNWYQQKPGKAPNLLIYATSNLKSGVPSRFSGSGSGTDFTLTISSLQPEDFATYYCQQSYSTSYTFGQGTKVDIK",
    "discrete_label": "Yes"
  },
  {
    "binder": "ADI-15006 (antibody, V domains shown, IgG; also called Antibody Number 125) VH: EVQLVESGPGLVKPSGTLSLTCTVSGDSMSDYYWSWIRQSPGRGLEWLGYIYYDGSTNYNPSLKGRGTISIDTSKSQFSLTLSSVKAADTAVYYCARGKYYDRGGYYLFYLDYWGQGILVTVSS VL: DIRLTQSPSSLSASVGDRVTITCRASQTIASYVNWYQQKPGKAPKLLIYAASSLQDGVPSRFSGSGSGTDFALTISSLQPEDFAIYFCQQSYSTPIFTFGPGTKVEIK",
    "discrete_label": "Yes"
  },
  {
    "binder": "ADI-15645 (antibody, V domains shown, IgG) VH: EVQLLESGGGLVQPGGSLRLSCAASGFTFSSYAMSWVRQIPGKGLEWVSTINISGGSTYYADSVKGRFTISRDNSRDTVFLQMNGLRAEDTALYYCARGYHIDWFDFWGQGTLVTVSS VL: DIVLTQTPSSVSASVGDRVTITCRASQDIGSWLAWYQQKPGKAPQFLIYAASQLQSGVPSRFSGSGSGTDFTLTISSLQPEDFATYYCQQAKSLPRTFGGGTKVDIK",
    "discrete_label": "Yes"
  },
  {
    "binder": "ADI-15605 (antibody, V domains shown, IgG) VH: QVQLVQSGPEVKKPGESLKISCKGSGYTFTTYWIGWVRQRPGKGLEWMGIIHPGDSDTRYSPSLQGQVTISVDKSINTAYLQWRSLKASDTGMYYCARFEYGDFGNDFWGQGTLVTVSS VL: NFMLTQPHSVSESPGKTVTISCSRSSGSIANNYVQWYQQRPGSSPTTVIYEDNQRPSGVPDRFSGSIDSSSNSASLTISGLKTEDEADYYCQSYDSSNHRVFGGGTKLTVL",
    "discrete_label": "Yes"
  },
  {
    "binder": "ADI-15581 (antibody, V domains shown) VH: QVQLVQSGAEVKKPGSSMKVSCQASGGPFSTYTISWVRQAPGQGLEWMGGIIPVFGTPNYAQKFHGRVTITADQSTSTAYMELSSLRSEDTAVYYCAGAPYPMDVWGQGTTVTVSS VL: EIVLTQSPATLSLSPGERATLSCRASQSVASSLAWYQQKPGQAPRLLIYDASNRATGIPARFSGSGSGTDFTLTISSLEPEDFAVYYCQQRTNWQGLSFGGGTKVDIK",
    "discrete_label": "Yes"
  }
]

Consider the record given below.
Request: // inclusive: Neut IC50 (ug/ml) subtype A at least 0.06 µg/mL? input: ADI-15556 (antibody, V domains shown, IgG) VH: QVQLVQSGAEVKKPGSSVKVSCKASGGNVNIYGISWVRQAPGQGLEWMGGIIPIYDTTKYAQKFQDRVTITADKSTSTAYMELSSLRSEDTAVYFCARDLDYDILTGYSVNYYYYGMDVWGQGTTVTVSS VL: QSVLTQPPSVSGAPGQRVTISCTGSSSNIGAGYDVHWYQQLPGTAPKLLIYGNINRPSGVPDRFSGSKSGTSASLAITGLQAEDEADYYCQSCDSSLSGWVFGGGTKLTIL
Result: No
